For each record, write down the corresponding Number of times when compound is affected.
TEST PROTOCOL: LC/MS of serum sample: number of times of freezing and thawing (Table M)
Format: physicochemical, human
STUDY CONDITIONS: serum sample, LC/MS; detection intensity changed by 30% or more vs 2 times of freezing and thawing
Answers are plain numbers, in times.

Here is how some compounds turned out for Number of times when compound is affected.
Nc1ncnc2nc[nH]c12 [Adenine]	4
CN(CC(=O)O)C(=N)N [Creatine]	4
CC(C)[C@H](N)C(=O)O [Valine, valine]	10
NC(=O)C[C@H](N)C(=O)O [Asparagine]	6
Nc1ncnc2c1ncn2[C@@H]1O[C@H](COP(=O)(O)O)[C@@H](O)[C@H]1O [Adenosine monophosphate]	4
NC(=O)NC1NC(=O)NC1=O (stereo not drawn) [Allantoin]	4
N[C@@H](CC(=O)O)C(=O)O [Aspartic acid]	10
NC(=O)NCCC[C@H](N)C(=O)O [Citrulline]	6
NCCC(=O)N[C@@H](Cc1cnc[nH]1)C(=O)O [Carnosine, carnosine]	4
Nc1nc2c(ncn2[C@@H]2O[C@@H]3COP(=O)(O)O[C@H]3[C@H]2O)c(=O)[nH]1 [Guanosine 3′,5′-cyclic monophosphate, guanosine 3′,5′-cyclic monophosphate]	4

Report Number of times when compound is affected for each item below.
1. O=c1[nH]cnc2nc[nH]c12 [Hypoxanthine]
2. Nc1ccccc1C(=O)CC(N)C(=O)O (stereo not drawn) [Kynurenine]
3. N=C(N)NCCC[C@H](NC(CC(=O)O)C(=O)O)C(=O)O (stereo partly drawn) [Argininosuccinic acid]

Key:
4
4
6

Hi! Can you tell me Number of times when compound is affected for each of these compounds?
1. O=C(O)[C@@H]1CCCN1 [Proline]
2. C[S+]([O-])CC[C@H](N)C(=O)O (stereo partly drawn) [Methionine sulfoxide]

Key:
1. 10
2. 4

###

TEST PROTOCOL: GC/MS of serum sample: time from centrifugation to isolation (Table H)
Format: physicochemical, human
STUDY CONDITIONS: detection intensity, after 1 hour vs 30 minutes
REPORTED PROPERTY: Increase or decrease

Example molecules with recorded Increase or decrease:
O=C[C@H](O)[C@@H](O)[C@@H](O)[C@H](O)C(=O)O	Increase
O=C(O)CCCc1ccccc1	Increase
O=C(CO)[C@H](O)[C@H](O)[C@H](O)CO	Decrease
O=C(O)/C=C\C(=O)O	Increase
O=C(O)c1ccccc1	Decrease
CC(=O)N[C@@H](CO)C(=O)O	Increase

Provide each entry's Increase or decrease from the list below.
1. O=C(CO)[C@H](O)CO
2. OC[C@H]1O[C@H](O[C@H]2O[C@H](CO)[C@@H](O)[C@H](O)[C@H]2O)[C@H](O)[C@@H](O)[C@@H]1O
3. CC(C)(CO)[C@@H](O)C(=O)NCCC(=O)O
4. NCCCCCN
5. O=C(O)CCCCC(=O)O
6. N[C@@H](CS(=O)O)C(=O)O

Key:
1. Increase
2. Increase
3. Decrease
4. Decrease
5. Increase
6. Increase

Look up Increase or decrease for the entries below, preserving their order.
1. Oc1ccccn1 [2-Hydroxypyridine]
2. O=C(O)CCC(O)C(=O)O (centres unmarked) [2-Hydroxyglutaric acid]
3. OC[C@@H](O)[C@@H](O)[C@@H](O)CO
4. CCCCCCC(N)C(=O)O (centres unmarked)
5. OC[C@@H](O)[C@@H](O[C@@H]1O[C@H](CO)[C@H](O)[C@H](O)[C@H]1O)[C@H](O)[C@@H](O)CO
6. O[C@@H]1[C@@H](O)[C@@H]2OC[C@@H](O2)[C@H]1O [1,6-Anhydroglucose]

Key:
["Increase", "Increase", "Increase", "Increase", "Increase", "Increase"]

Exercise: Would you kindly share the measured Increase or decrease for `CC(=O)C(=O)O` ?
Key: Decrease
